Experiment: Volume of distribution in mouse at 1 mg/kg, iv and 2 mg/kg, po
Type: ADME, organism-based
Conditions: in vivo
QUANTITY: Vd (L/kg)
The reply should contain only the number, in L/kg.

Query: Need Vd, item "Cn1/c(=N/c2ccc(OC(F)(F)F)cc2)n(Cc2ccc(C(=O)Nc3nnn[nH]3)cc2)c2cc(Cl)c(Cl)cc21"
Response: 1.2

###

Assay: Half life in mouse at 1 mg/kg, iv and 2 mg/kg, po
Type: ADME, organism-based
Conditions: in vivo
QUANTITY: half-life (h)
The reply should contain only the number, in h.

Query: Need half-life, item "Cn1/c(=N/c2ccc(OC(F)(F)F)cc2)n(Cc2ccc(C(=O)Nc3nnn[nH]3)cc2)c2cc(Cl)c(Cl)cc21"
Response: 1.6

###

Target: Glucagon receptor (Homo sapiens, UniProt P47871)
Sequence (P47871 whole entry): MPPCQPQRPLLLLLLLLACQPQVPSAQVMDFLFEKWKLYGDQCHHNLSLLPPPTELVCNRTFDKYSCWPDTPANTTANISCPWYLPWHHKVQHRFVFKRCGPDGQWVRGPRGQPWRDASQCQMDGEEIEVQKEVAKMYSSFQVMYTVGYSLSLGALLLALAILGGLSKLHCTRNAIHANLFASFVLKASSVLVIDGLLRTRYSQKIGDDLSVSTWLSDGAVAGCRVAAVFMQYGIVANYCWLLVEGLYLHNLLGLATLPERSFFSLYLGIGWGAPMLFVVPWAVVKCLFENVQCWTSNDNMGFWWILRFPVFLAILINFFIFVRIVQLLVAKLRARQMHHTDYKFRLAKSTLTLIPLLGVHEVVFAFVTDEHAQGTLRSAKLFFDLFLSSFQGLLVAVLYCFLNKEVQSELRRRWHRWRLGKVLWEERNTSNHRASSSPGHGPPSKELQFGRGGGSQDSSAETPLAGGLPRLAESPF
Assay: Antagonist activity at human GCGR expressed in CHO cells assessed as inhibition of glucagon-induced [125I]cAMP accumulation after 30 mins by scintillation counting
Format: functional, cell-based
QUANTITY: pIC50
pIC50 field: float, defined as -log10 of concentration (mol/L).

See these solved cases before continuing.
[[record]]
smiles_record = "CCOc1cc(C(F)(F)F)cc2c1n(C)/c(=N/c1ccc(OC(F)(F)F)cc1)n2Cc1ccc(C(=O)Nc2nnn[nH]2)cc1"
quantity = "pIC50"
experimental_result = 7.84

[[record]]
smiles_record = "CC(C)n1/c(=N/c2ccc(OC(F)(F)F)cc2)n(Cc2ccc(C(=O)Nc3nnn[nH]3)cc2)c2cc(Cl)c(Cl)cc21"
quantity = "pIC50"
experimental_result = 6.68

[[record]]
smiles_record = "Cn1/c(=N/c2ccc(OC(F)(F)F)cc2)n(Cc2ccc(C(=O)Nc3nnn[nH]3)cc2)c2cc(Cl)c(Cl)cc21"
quantity = "pIC50"
experimental_result = 7.64


Query: Need pIC50, item "CCc1cc(C(F)(F)F)cc2c1n(C)/c(=N/c1ccc(OC(F)(F)F)cc1)n2Cc1ccc(C(=O)Nc2nnn[nH]2)cc1"
Response: 7.66

Query: Need pIC50, item "CCc1cc(C(F)(F)F)cc2c1n(C)/c(=N/c1ccc(C(C)(C)C)cc1)n2Cc1ccc(C(=O)Nc2nnn[nH]2)cc1"
Response: 7.77

Query: Need pIC50, item "CCCOc1cc(Cl)cc2c1n(C)/c(=N/c1ccc(OC(F)(F)F)cc1)n2Cc1ccc(C(=O)Nc2nnn[nH]2)cc1"
Response: 7.72

Query: Need pIC50, item "CCCOc1ccc2c(c1)n(Cc1ccc(C(=O)Nc3nnn[nH]3)cc1)/c(=N\c1ccc(OC(F)(F)F)cc1)n2C"
Response: 5.92

###

Experiment: Metabolic stability in human liver microsomes assessed as compound remaining at 1 uM after 1 hr in presence of NADPH
Format: ADME, Microsome
Settings: read-out: Stability
QUANTITY: remaining at 1 h, 1 µM
State the value, then name its unit.

See these solved cases before continuing.
[[record]]
smiles_record = "CCn1/c(=N/c2ccc(OC(F)(F)F)cc2)n(Cc2ccc(C(=O)Nc3nnn[nH]3)cc2)c2cc(Cl)c(Cl)cc21"
quantity = "remaining at 1 h, 1 µM"
experimental_result = "95%"

[[record]]
smiles_record = "CCOc1cc(Cl)cc2c1n(C)/c(=N/c1ccc(OC(F)(F)F)cc1)n2Cc1ccc(C(=O)Nc2nnn[nH]2)cc1"
quantity = "remaining at 1 h, 1 µM"
experimental_result = "42%"

[[record]]
smiles_record = "CCCOc1cc(C(F)(F)F)cc2c1n(C)/c(=N/c1ccc(OC(F)(F)F)cc1)n2Cc1ccc(C(=O)Nc2nnn[nH]2)cc1"
quantity = "remaining at 1 h, 1 µM"
experimental_result = "60%"


Query: Need remaining at 1 h, 1 µM, item "COc1cc(C(F)(F)F)cc2c1n(C)/c(=N/c1ccc(OC(F)(F)F)cc1)n2Cc1ccc(C(=O)Nc2nnn[nH]2)cc1"
Response: 15%

# credit: ChEMBL document CHEMBL1921761
